Biological target: T1, MORF PHD1/2 fingers (aa 211-329) (human, UniProt Q8WYB5-3 211-329)
T1 sequence (looked up): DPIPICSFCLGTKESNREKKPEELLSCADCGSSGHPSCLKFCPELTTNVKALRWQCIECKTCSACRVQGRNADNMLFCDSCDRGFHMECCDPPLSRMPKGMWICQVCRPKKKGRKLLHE
Assay: other fluorescence titration

| binder | Kd [nM] |
| --- | --- |
| ARTKQTARKSTG (acetyl-lysine at 9) [histone H3 peptide acetylated at Lys9 (length not stated for the experiment)] | 1400 |
